# Measurement notes: protein stability index of a GFP-peptide fusion (yeast GPS) (PSI 1-4); higher = more stable; sorted into four equal gates, so the index is relative within each strain
# Run conditions: ubr1∆
Parameter class (string): assigned from measured protein stability index. Ranges: low value = under 2, medium value = from 2 up to 3, high value = 3 and over

{"Sequence": "CDILVATPGRLIDSLEN [PRP28]", "Label value": "high value"}
{"Sequence": "SNGGGKVKPIRGFCQRL [RPO31]", "Label value": "high value"}
{"Sequence": "ETEKFALERNWPIVNSK [RPN12]", "Label value": "high value"}
{"Sequence": "GNGITNTTTRVIPQVEV [SNF5]", "Label value": "medium value"}
{"Sequence": "GKALVHHYEECAERVKI [QCR6]", "Label value": "high value"}
{"Sequence": "NNKITQLIAKNVANVSG [SIR3]", "Label value": "medium value"}
{"Sequence": "NDILDELLCGMANKEWR [ECM29]", "Label value": "low value"}
{"Sequence": "EEKVIERAAQKLRLDQL [ISW2]", "Label value": "medium value"}
{"Sequence": "YSEEPREKVRKLSQYVQ [FAS2]", "Label value": "high value"}
{"Sequence": "LFGGRHYLFNTFTFTAH [SWP82]", "Label value": "low value"}
{"Sequence": "RFRGKRVVYLKHLEDNT [RPL6A]", "Label value": "medium value"}
{"Sequence": "MPNIELYLKVIPMDFIR [SSN2]", "Label value": "medium value"}
{"Sequence": "FNQEGDYNFKYGIPLEF [PRP8]", "Label value": "high value"}
{"Sequence": "VILKQILQILDQDELVQ [SWP82]", "Label value": "medium value"}
{"Sequence": "KIYINLALGSHNKLIQF [SSN2]", "Label value": "medium value"}
{"Sequence": "TKIKPFIKVVNYNHLLP [RPL27A]", "Label value": "medium value"}
{"Sequence": "IDSINGPDTKGQLEDFD [SMC3]", "Label value": "high value"}
{"Sequence": "YEKELMGDELTRSHFNA [RPN6]", "Label value": "high value"}
{"Sequence": "SRSRSSIRSISPAGKYK [ESC2]", "Label value": "high value"}
{"Sequence": "ANVVDITNDWEQPCVDI [YJR042W/NUP85]", "Label value": "high value"}
{"Sequence": "TNQDGLKFVKVRVRTTK [RPB2]", "Label value": "high value"}
{"Sequence": "NRLSRIHLYMLTFHTLK [YLR018C/POM34]", "Label value": "low value"}
{"Sequence": "LLKHPFKAIHGSQLRLS [YCS4]", "Label value": "low value"}
{"Sequence": "VTNDLDTSAEKDQIQAG [SIR4]", "Label value": "high value"}
{"Sequence": "RAANQGALPPDLSLIVK [CYT1]", "Label value": "medium value"}
{"Sequence": "NDRNPRLNENKKIGCYM [CSN12]", "Label value": "high value"}
{"Sequence": "LAASEIGISIVGRFSTI [ECM29]", "Label value": "medium value"}
{"Sequence": "GLLKRGDTVRILDTSQS [SNU114]", "Label value": "medium value"}
{"Sequence": "AVEFESVPLRKGDRALL [BRR2]", "Label value": "medium value"}
{"Sequence": "VIEQCYLKFIPLKRAIW [SRB8]", "Label value": "low value"}
{"Sequence": "TARVMGGLKNGVLYQGN [DIS3]", "Label value": "high value"}
{"Sequence": "VACLFITISIHGKPTKG [SSN8]", "Label value": "low value"}
{"Sequence": "EAHNKALNQFKRKLLEH [RPT4]", "Label value": "high value"}
{"Sequence": "SKNSPAEDDVIIPQDIL [YJR042W/NUP85]", "Label value": "high value"}
{"Sequence": "VFGFRANKMRQDRLSDL [SMC4]", "Label value": "medium value"}
{"Sequence": "AYILAAQKTSFEYEGVQ [RPN1]", "Label value": "medium value"}
{"Sequence": "GLNDLVEQYKFRETTHS [BRR2]", "Label value": "high value"}
{"Sequence": "RREFKQYSLERNSPFWW [PRP8]", "Label value": "high value"}
{"Sequence": "IKNLTVQLSPSNPQHII [RGR1]", "Label value": "medium value"}
{"Sequence": "AFETHYRRLFAKRLIHG [CDC53]", "Label value": "medium value"}
{"Sequence": "TSKMNLSEDVNLETLVT [RPT2]", "Label value": "medium value"}
{"Sequence": "PTKLLVSEVAKIMQEAT [PRE8]", "Label value": "medium value"}
{"Sequence": "QMDGFDNLGQTKIIMAT [RPT4]", "Label value": "high value"}
{"Sequence": "RPLQKIMLLQLELGSCF [SIN4]", "Label value": "low value"}
{"Sequence": "ENIIQRLQAANSMEYTG [CDC53]", "Label value": "low value"}
{"Sequence": "ANSESGHYQAFIRDELD [UBP6]", "Label value": "medium value"}
{"Sequence": "NPTEFDWPTYVDQNPLT [SRB8]", "Label value": "medium value"}
{"Sequence": "DVKLLHSQFMKDLKDDS [YJL039C/NUP192]", "Label value": "medium value"}
{"Sequence": "FQAQQAQQAQQAQQAQQ [SNF2]", "Label value": "medium value"}
{"Sequence": "PFKGEVVDGTVVSCSQH [RPB7]", "Label value": "medium value"}
{"Sequence": "QTRWGLPSGRQDGVLLV [FAS2]", "Label value": "low value"}
{"Sequence": "MNGIQVDINRLKKGEVS [PRE3]", "Label value": "low value"}
{"Sequence": "QSYFSQLKFEGFALNSD [BRR2]", "Label value": "low value"}
